Measured values drawn from ChEMBL document CHEMBL3988442 for this set.

Target: Ubiquitin-activating enzyme e1, putative (Leishmania donovani (strain BPK282A1)) (UniProt E9BSI1)
Sequence (E9BSI1 as listed by the source): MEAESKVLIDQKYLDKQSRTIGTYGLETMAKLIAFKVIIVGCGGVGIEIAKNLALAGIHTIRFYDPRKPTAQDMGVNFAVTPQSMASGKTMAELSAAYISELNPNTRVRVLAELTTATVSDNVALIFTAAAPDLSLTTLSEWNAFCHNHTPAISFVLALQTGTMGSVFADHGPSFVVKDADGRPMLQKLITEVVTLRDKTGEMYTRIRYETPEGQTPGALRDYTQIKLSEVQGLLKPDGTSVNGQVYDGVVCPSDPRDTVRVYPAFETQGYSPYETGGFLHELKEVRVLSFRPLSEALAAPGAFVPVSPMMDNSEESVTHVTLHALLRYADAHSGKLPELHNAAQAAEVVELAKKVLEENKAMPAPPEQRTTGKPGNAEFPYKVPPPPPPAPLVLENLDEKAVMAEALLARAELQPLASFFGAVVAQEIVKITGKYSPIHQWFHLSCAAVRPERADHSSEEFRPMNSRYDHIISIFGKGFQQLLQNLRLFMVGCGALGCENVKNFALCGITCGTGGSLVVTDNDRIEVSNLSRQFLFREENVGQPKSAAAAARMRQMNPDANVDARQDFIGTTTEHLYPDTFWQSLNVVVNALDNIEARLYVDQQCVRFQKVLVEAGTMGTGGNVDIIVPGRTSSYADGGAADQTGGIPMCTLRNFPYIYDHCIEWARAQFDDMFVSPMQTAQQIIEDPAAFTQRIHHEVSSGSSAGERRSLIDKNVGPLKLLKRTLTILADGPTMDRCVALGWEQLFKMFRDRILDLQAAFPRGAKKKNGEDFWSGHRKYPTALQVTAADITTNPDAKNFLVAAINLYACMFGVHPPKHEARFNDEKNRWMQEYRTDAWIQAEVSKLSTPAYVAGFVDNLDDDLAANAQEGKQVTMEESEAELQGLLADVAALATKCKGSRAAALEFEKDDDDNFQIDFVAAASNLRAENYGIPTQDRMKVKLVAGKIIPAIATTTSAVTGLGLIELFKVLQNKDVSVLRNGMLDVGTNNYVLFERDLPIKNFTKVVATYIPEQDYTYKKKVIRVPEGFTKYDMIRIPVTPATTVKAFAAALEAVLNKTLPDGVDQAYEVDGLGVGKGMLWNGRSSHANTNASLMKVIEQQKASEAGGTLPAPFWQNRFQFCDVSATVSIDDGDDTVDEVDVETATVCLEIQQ
Test: Leishmania donovani Ubiquitin Activating Enzyme (LdE1)
Assay type: functional
Set-up: scale not given: direction of the effect not stated beside the values
Settings: 30 µM
Potency and affinity values are given separately.
Outcome label depends on Percent Effect relative to 20%: at/above gives Met, below gives Not met.

Cc1nc[nH]c1-c1nc2cc(S(=O)(=O)N3CCCC3)ccc2n1C :: Not met
CC(C)c1cc(C(=O)N2CCN(Cc3ccsc3)CC2)n[nH]1 :: Not met
Cn1cnnc1C1CCCN(C(=O)c2n[nH]c3ccccc23)C1 (stereo unspecified) :: Not met
CCc1noc(CN2CCN(C(=O)N(C)C)CC2)n1 :: Not met
Cc1nccn1-c1nccnc1C1CCN(Cc2ccc(F)cc2)CC1 :: Met

// switching to the query molecule
State whether the measured Percent Effect reaches 20%, counting equality as reaching it, for Cc1ccccc1CSCCn1nc2ccccn2c1=O
Not met

----------
Test system: Trypanosoma cruzi
Assay: Trypanosoma cruzi phosphomannomutase and mannose-1-phosphate guanylyltransferase assay
Type: functional
Design: scale not given: direction of the effect not stated beside the values
Conditions: 10 µM
Form field: Percent Effect (one value per entry).
Enter your answer as a number in %; do not include the unit.

Examples from the recorded data:
CCS(=O)(=O)N(C)c1ccc(C(=O)N2CCCC(C)C2)cc1 (centres undefined) :: 3.4
CC(C)c1cc(C(=O)N2CCN(Cc3ccsc3)CC2)n[nH]1 :: 5.57
Cc1ncc(C)c(N2CCCC(CO)(Cc3cccc(Cl)c3)C2)n1 (centres undefined) :: 5.61
CCn1cc(CN2CCCN(C(=O)c3ccn(C)c(=O)c3)CC2)cn1 :: 4.02
CN(C)C(=O)Cc1nc(CN2CCOC(Cn3cccn3)C2)cs1 (centres undefined) :: -1.46

What value of measured Percent Effect is listed for CCN1CCN(C(=O)c2nc(C)n(-c3ccccc3Cl)n2)CC1 ?
5.7

Now consider Cc1ccc(=O)n(CC2(O)CCN(Cc3ccsc3)CC2)n1 and answer again.
-4.74

Also CC(=O)N1CCCCC1c1cc(CO)[nH]n1 (centres undefined) , if possible.
1.78

Request: CC(c1nc(C(C)(C)C)no1)N1CCN(CC(=O)N2CCOCC2)CC1 (centres undefined)
-1.66

----------
Molecular target: Arginase-2, mitochondrial (Homo sapiens) (UniProt P78540)
Sequence (P78540 whole entry): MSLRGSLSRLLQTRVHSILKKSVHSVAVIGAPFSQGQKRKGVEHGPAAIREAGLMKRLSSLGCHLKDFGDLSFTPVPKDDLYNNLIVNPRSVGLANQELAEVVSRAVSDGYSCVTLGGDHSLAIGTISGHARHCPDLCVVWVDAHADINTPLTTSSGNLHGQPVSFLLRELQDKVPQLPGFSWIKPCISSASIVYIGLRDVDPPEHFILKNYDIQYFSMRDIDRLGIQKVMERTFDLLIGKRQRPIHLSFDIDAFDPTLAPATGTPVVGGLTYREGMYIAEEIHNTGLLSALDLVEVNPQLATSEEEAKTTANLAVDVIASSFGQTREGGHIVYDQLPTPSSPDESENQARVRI
Assay: in vitro enzyme assay to detect the production of urea directly proportional to the activity of Arginase II; note: in the data most compounds retested in dose-response had high values
Assay type: functional
Parameters: scale not given: direction of the effect not stated beside the values
Details: 33.3 µM
Reported metric: Percent Effect (%)
Your answer is read as %, so omit the unit and give the number.

Recorded Percent Effect, per entry:
Cc1ccc(C(=O)N2CCCC(C(=O)N3CCCCC3)C2)c(O)c1 (centres undefined) :: -1.2
CCCc1nc(CN2CCOC(Cn3cncn3)C2)no1 (centres undefined) :: 3.23
COc1ncccc1C(=O)Nc1nc2c(s1)CN(S(=O)(=O)C1CC1)CC2 :: 1.82

Recorded Percent Effect for CCc1nc(CN2CCCC(NCc3cnn(C(C)(C)C)c3)C2)no1 (centres undefined) with Arginase-2, mitochondrial (Homo sapiens) (UniProt P78540), please?
-1.52

Field entry: Cc1noc(C2CCN(C(=O)c3c(C)noc3C)CC2)n1
0.248

Entry CC(C)c1nc2n(n1)CC(NCc1nnc(-c3ccco3)o1)CC2 (centres undefined) please
0.802

Try the compound COc1ccc(OC)c(C2C3=C(COC3=O)Nc3[nH]nc(C)c32)c1 (centres undefined)
17.1

Next record, please: O=C(CC1CC1)N1CCC2(CC1)CN(c1ncccn1)CCO2
-5.83

// repeat for O=C1CCC2(CCN(Cc3cc(F)cc(F)c3)CC2)CN1CCO and report
-24.7

Continue with CCc1nc2n(n1)CC(NCc1nc(C)ccc1O)CC2 (centres undefined)
-2.37

Ok, now Cc1cc(N2CCN(CCO)CC2)nc(-c2ccncc2)n1
-8.28

----------
// Percent Effect lookup, one value per entry
Biological target: AMP-activated protein kinase, AMPK (Homo sapiens) (UniProt P54646+O43741+P54619+Q9UGJ0+Q9Y478+Q13131+Q9UGI9)
Test: AMP-dependent Kinase enzyme assay. An in vitro enzyme assay that detects ADP turnover that is directly proportional to AMPK activity. This uses naive AMPK that is activated during the assay with MK-8722
Format: functional
Set-up: scale not given: direction of the effect not stated beside the values
Details: 30 µM
// note: answer is a bare numeric in %

Please review the entries below; each comes with its answer.
Cc1nc(C2CCCN(C(=O)Cn3ccccc3=O)C2)no1 (stereo unspecified) :: 3.05
O=C(NCC1CCN(C(=O)c2ccoc2)CC1)c1ccccc1Br :: 3.13

For the compound Cc1[nH]ncc1C(=O)N1CCCC(c2cc(C(F)(F)F)[nH]n2)C1 (stereo unspecified) , what Percent Effect is on record?
-26.4

Param item: O=C(CCc1cccs1)N1CCCCC1Cn1cccn1 (stereo unspecified)
-2.34

Try this compound too: COCCn1cc2c(n1)C(CNCc1ccc(F)cc1)OCC2 (stereo unspecified)
-0.136

Now try Cc1nc2ccccc2c(=O)n1CCC(=O)N1CCSCC1 .
14.1

----------
Species on record: Homo sapiens
Experiment: To identify inhibition of the IFN signalling (Jak-Stat) pathway via expression of an eGFP reporter gene under the control of an IFN-stimulated response element (ISRE) containing MxA promoter.
Type: functional
Set-up: scale not given: direction of the effect not stated beside the values
Conditions: 30 µM
Reported metric: Percent Effect (%)
Record the value in %, omitting the unit from your answer.

Cn1cccc1CCC(=O)N1CCC2(CC1)c1ccccc1CC2O (stereo not drawn) :: 21.3
COc1ccc(CCC(=O)NC2CCC(O)CC2)cc1OC (stereo not drawn) :: 7.63
O=C(NCc1cccnc1)C1CC(=O)N(CC2CC2)C1 (stereo not drawn) :: 4.16
Cc1cc(CN2CCN(C(=O)c3sccc3C3CC3)CC2)on1 :: 18.1
CCn1nc(CC(C)C)cc1C(=O)NCCCOC :: 3.12

Using the record for Cc1noc2ncc(C(=O)N(CC3CCOC3)C3CC3)cc12 (stereo not drawn) , report its Percent Effect.
24.4

Now the same for CC(C)NC(=O)COc1nc(C(C)(C)C)no1
-3.96

Likewise for Cc1nc(N2CC[C@@H](NC(=O)c3cnccn3)[C@H](O)C2)c2ccsc2n1 ?
46.9

What do you get for CN(Cc1ccc(F)cc1)C(=O)Cn1nc(-c2ccc(F)cc2)oc1=O ?
14.9

Entry to check: Cc1oc(C)c(C(=O)NCc2ccccn2)c1C
14

Now the compound COCC(=O)N1CCC(c2nc3ccc(N4CCCC4)cn3n2)CC1
-9.84

Next: Cc1cnn(CC2CCCN2Cc2nccn2C)c1 (stereo not drawn)
4.67

Another compound to look at: CC(=O)NCC(=O)N1CC[C@H](OCC2CC2)[C@@H]1Cc1cccnc1
1.5

Then what about the compound CC(=O)N1CCN(c2cc(C3CN(C)CCO3)nc(C)n2)CC1 (stereo not drawn) ?
12.3

Now the compound CS(=O)(=O)N1CC[C@]2(C[C@@H](OCC3CCC3)CO2)C1
-1.67

----------
Biological target: AMP-activated protein kinase, AMPK (Homo sapiens) (UniProt P54646+O43741+P54619+Q9UGJ0+Q9Y478+Q13131+Q9UGI9)
Test: AMP-dependent Kinase enzyme assay. An in vitro enzyme assay that detects ADP turnover that is directly proportional to AMPK activity. This uses naive AMPK that is activated during the assay with MK-8722
Format: functional
Set-up: scale not given: direction of the effect not stated beside the values
Details: 30 µM
This listing pairs molecules with measured Percent Effect.
# output: bare number, implied unit %

COc1cc(CNC2CCc3nc(C(C)C)nn3C2)cc2c1OCO2 (centres undefined) :: -0.342
O=C(c1ccccc1-n1cccn1)N1CCCN(c2cccnn2)CC1 :: 5.31
COC(=O)C(C)(C)NC(=O)C1CC(=O)N(C)C1 (centres undefined) :: -4.39
COc1ccc(OCCCN2CCOC(Cn3cccn3)C2)cc1 (centres undefined) :: 9.54
CCc1ccc(C(=O)N2CCN(CC(C)O)CC2)o1 (centres undefined) :: -5.4

What does the data say about its Percent Effect? Entry: COCC(C)(O)CNC(=O)COc1ccccc1OC (centres undefined)
6.7

Entry CNc1cc(CNC(=O)c2ccccn2)nc(-c2ccncc2)n1 please
3.35

Please answer likewise for Cc1ccc(CN2CCC[C@]3(C(=O)O)CN(c4ncccn4)C[C@@H]3C2)o1
-3.88

Follow-up item: COc1ccccc1CC(=O)NS(=O)(=O)c1ccc(C(N)=O)cc1
0.334

----------
Each item that follows carries a reported Percent Effect.
Molecular target: Tyrosyl-tRNA synthetase, putative (Trypanosoma cruzi (strain CL Brener)) (UniProt Q4DSP6)
Sequence (Q4DSP6 as listed by the source): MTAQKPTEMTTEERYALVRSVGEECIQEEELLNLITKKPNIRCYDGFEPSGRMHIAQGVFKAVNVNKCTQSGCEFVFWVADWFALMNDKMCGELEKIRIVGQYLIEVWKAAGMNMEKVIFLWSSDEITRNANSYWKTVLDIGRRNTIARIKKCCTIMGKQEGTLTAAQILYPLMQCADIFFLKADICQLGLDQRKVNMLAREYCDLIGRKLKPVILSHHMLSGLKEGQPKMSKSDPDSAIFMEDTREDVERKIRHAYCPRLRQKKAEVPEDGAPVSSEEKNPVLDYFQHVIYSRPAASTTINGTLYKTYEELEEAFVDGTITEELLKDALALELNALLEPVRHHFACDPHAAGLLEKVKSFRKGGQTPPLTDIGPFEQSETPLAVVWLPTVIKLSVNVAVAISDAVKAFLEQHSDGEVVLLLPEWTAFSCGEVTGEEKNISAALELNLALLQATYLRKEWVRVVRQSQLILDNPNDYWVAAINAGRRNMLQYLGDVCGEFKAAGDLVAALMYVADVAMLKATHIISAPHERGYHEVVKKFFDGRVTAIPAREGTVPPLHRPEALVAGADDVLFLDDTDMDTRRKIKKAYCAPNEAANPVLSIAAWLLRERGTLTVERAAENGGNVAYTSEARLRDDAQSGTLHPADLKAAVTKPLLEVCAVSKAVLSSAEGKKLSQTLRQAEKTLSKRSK
Experiment: Trypanosoma cruzi tyrosyl tRNA synthetase (TcYRS) SOP
Type: functional
Set-up: scale not given: direction of the effect not stated beside the values
Conditions: 30 µM
Respond numerically; units are % and should not be typed.

Below are worked cases with known answers.
CO[C@H]1CN(C(=O)c2ccc3oc(C)cc3c2)CC[C@@]12CCCO2 :: -1.3
CN(C)C(=O)c1cccc(NC(=O)N(CCO)Cc2ccsc2)c1 :: 12.8
CC(=O)c1c(F)cccc1N1CCC(CS(N)(=O)=O)CC1 :: 3.7

Reported Percent Effect for O=C(NCCNc1ncccn1)C1CCN(c2ncccn2)CC1 : what is it?
13.4

Now consider Cc1cc(N2CCN(C(=O)c3cc(Cl)c[nH]3)CC2)nc(N)n1 .
13.6

Another compound: COCC1CN(Cc2ccncc2)Cc2nnn(CC3CC3)c21 (stereo unspecified)
-1.24

Now the compound O=C(c1cnc(-c2cccs2)s1)N1CCCN2CCCC2C1 (stereo unspecified)
23.5

And the next one, CCn1cc2c(n1)CN(C(=O)c1ccncc1)CC2COCC1CC1 (stereo unspecified) ?
20
